molecular target: GPC3 (Homo sapiens); assay: GPC3 binding via flow cytometry using GPC3+ HEK293 cells; design: expressed in transfected cells; host or cells: engineered HEK293 cells overexpressing GPC3; conditions: GPC3^+ HEK293 cells
recorded.metric: GPC3 binding activity (MFI)
Give bare numbers.

Some solved entries appear below for comparison.
AAGCATTACCGGGTTGCTACCCAAGGACAAGAGTCGATGATGCTT (listed as DNA, chemistry not fully specified) [Min2, 27] ... 16652
AAGCCATTACCGGGTTGCTACCCGAGGACAAGAGTCGATGATGCTT (listed as DNA, chemistry not fully specified) [Min3, 28] ... 377
AAGCCATTATCGGGTTGCTACCCAAGGACAAGAGTCGATGATGCTT (listed as DNA, chemistry not fully specified) [Min4, 29] ... 23261

Respectfully, I request GPC3 binding activity (MFI) for each entry included below.
1. CATTATCGGGTTGCTACCCGAGGACAAGAGTCGATGATG (listed as DNA, chemistry not fully specified) [Min6, 31]
2. CATTATCGGGTTGCTACCCAAGGACAAGAGTCGATGATG (listed as DNA, chemistry not fully specified) [Min5, 30]
3. AAGCCATTACCGGGTTGCTACCCAAGGACAAGAGTCGATGATGCTT (listed as DNA, chemistry not fully specified) [Min1, 26]

1: 3619; 2: 19484; 3: 11403

Reference source for all entries: patent US20250281621A1
